Tested on: Wnt responsive promoter linked to luciferase gene in SW480 cells
protocol_details: Wnt Reporter Assay, SW480, 48 hours (Example 10)
Format: cell-based
measurement_conditions: Homo sapiens, 10-0.0003 μM, read-out: EC50, inhibition of Wnt pathway activity
quantity: EC50

[[record]]
compound = "COc1ccc(NC(=O)c2n[nH]c3ccc(-c4cncc(CN5CCCCC5)c4)cc23)cn1 [compound 175]"
value = "153 nM"


====

protocol_details: Pharmacokinetics after single topical application in rats (plasma, tendon, skin)
Type: in vivo, rat
measurement_conditions: male, Sprague Dawley, rat, plasma, topical or ocular, 10 mg/mL, Plasma; Group 2, 10 mg/mL, 1% BA, single topical
quantity: AUC(0-t) (ng·h/mL)

[[record]]
compound = "COc1ccc(NC(=O)c2n[nH]c3ccc(-c4cncc(CN5CCCCC5)c4)cc23)cn1 [compound 175]"
quantity = "AUC(0-t)"
value = 36.1


====

protocol_details: Pharmacokinetics after single topical application in rats (plasma, tendon, skin)
Assay type: in vivo, rat
measurement_conditions: male, Sprague Dawley, rat, plasma, topical or ocular, 1 mg/mL, Plasma; Group 1, 1 mg/mL, 1% BA, single topical
quantity: Tmax (h)

[[record]]
structure_notation = "COc1ccc(NC(=O)c2n[nH]c3ccc(-c4cncc(CN5CCCCC5)c4)cc23)cn1"
quantity = "Tmax"
unit_annotation = "h"
value = 1


====

protocol_details: Pharmacokinetics after single topical application in rats (plasma, tendon, skin)
Type: in vivo, rat
measurement_conditions: male, Sprague Dawley, rat, skin, topical; 7 hours post-dose; Group 2, 10 mg/mL containing BA; above quantitation limit, estimated
quantity: concentration at 7 h

[[record]]
structure_notation = "COc1ccc(NC(=O)c2n[nH]c3ccc(-c4cncc(CN5CCCCC5)c4)cc23)cn1"
quantity = "concentration at 7 h"
value = "209000 ng/g"


====

protocol_details: Pharmacokinetics after single topical application in rats (plasma, tendon, skin)
Format: in vivo, rat
measurement_conditions: male, Sprague Dawley, rat, plasma, topical or ocular, 10 mg/mL, Plasma; Group 2, 10 mg/mL, 1% BA, single topical
quantity: Tmax (h)

[[record]]
structure_notation = "COc1ccc(NC(=O)c2n[nH]c3ccc(-c4cncc(CN5CCCCC5)c4)cc23)cn1"
quantity = "Tmax"
unit_annotation = "h"
value = 4


====

protocol_details: Pharmacokinetics after single topical application in rats (plasma, tendon, skin)
Format: in vivo, rat
measurement_conditions: male, Sprague Dawley, rat, tendon, topical or ocular, 10 mg/mL, Tendon; Group 3, 10 mg/mL, no preservative (0.5% Tween 80), single topical
quantity: Cmax (ng/g)

[[record]]
compound = "COc1ccc(NC(=O)c2n[nH]c3ccc(-c4cncc(CN5CCCCC5)c4)cc23)cn1 [compound 175]"
value = 7050


====

protocol_details: Pharmacokinetics after single topical application in rats (plasma, tendon, skin)
Type: in vivo, rat
measurement_conditions: male, Sprague Dawley, rat, plasma, topical or ocular, 1 mg/mL, Plasma; Group 1, 1 mg/mL, 1% BA, single topical
quantity: AUC(0-t) (ng·h/mL)

[[record]]
structure_notation = "COc1ccc(NC(=O)c2n[nH]c3ccc(-c4cncc(CN5CCCCC5)c4)cc23)cn1"
quantity = "AUC(0-t)"
unit_annotation = "ng·h/mL"
value = 0.65


====

Each entry below carries its recorded pEC50.
Test system: Wnt-responsive promoter driving firefly luciferase in SW480 cells
protocol_details: Wnt reporter (SP5 promoter-luciferase) screening assay in SW480 cells
Type: cell-based
measurement_conditions: Homo sapiens, 24-40 h, top concentration ten micromolar
pEC50: −log10 of the molar value.
quantity: pEC50

[[record]]
structure_notation = "O=C(Nc1ccc(C(F)(F)F)nc1)c1n[nH]c2ccc(-c3cncc(CN4CCCCC4)c3)cc12"
quantity = "pEC50"
rel = "="
value = 7.00

[[record]]
structure_notation = "O=C(Nc1cnccc1C(F)(F)F)c1n[nH]c2ccc(-c3cccnc3)cc12"
quantity = "pEC50"
rel = "≤"
value = 5.00

[[record]]
structure_notation = "O=C(Nc1ccc(Oc2ccc(F)cc2)nc1)c1n[nH]c2ccc(-c3cccnc3)cc12"
quantity = "pEC50"
rel = "="
value = 6.93

